B1: Vitamin D3 receptor (Homo sapiens), P11473 (parent)
chain: MEAMAASTSLPDPGDFDRNVPRICGVCGDRATGFHFNAMTCEGCKGFFRRSMKRKALFTCPFNGDCRITKDNRRHCQACRLKRCVDIGMMKEFILTDEEVQRKREMILKRKEEEALKDSLRPKLSEEQQRIIAILLDAHHKTYDPTYSDFCQFRPPVRVNDGGGSHPSRPNSRHTPSFSGDSSSSCSDHCITSSDMMDSSSFSNLDLSEEDSDDPSVTLELSQLSMLPHLADLVSYSIQKVIGFAKMIPGFRDLTSEDQIVLLKSSAIEVIMLRSNESFTMDDMSWTCGNQDYKYRVSDVTKAGHSLELIEPLIKFQVGLKKLNLHEEEHVLLMAICIVSPDRPGVQDAALIEAIQDRLSNTLQTYIRCRHPPPGSHLLYAKMIQKLADLRSLNEEHSKQYRCLSFQPECSMKLTPLVLEVFGNEIS
partner: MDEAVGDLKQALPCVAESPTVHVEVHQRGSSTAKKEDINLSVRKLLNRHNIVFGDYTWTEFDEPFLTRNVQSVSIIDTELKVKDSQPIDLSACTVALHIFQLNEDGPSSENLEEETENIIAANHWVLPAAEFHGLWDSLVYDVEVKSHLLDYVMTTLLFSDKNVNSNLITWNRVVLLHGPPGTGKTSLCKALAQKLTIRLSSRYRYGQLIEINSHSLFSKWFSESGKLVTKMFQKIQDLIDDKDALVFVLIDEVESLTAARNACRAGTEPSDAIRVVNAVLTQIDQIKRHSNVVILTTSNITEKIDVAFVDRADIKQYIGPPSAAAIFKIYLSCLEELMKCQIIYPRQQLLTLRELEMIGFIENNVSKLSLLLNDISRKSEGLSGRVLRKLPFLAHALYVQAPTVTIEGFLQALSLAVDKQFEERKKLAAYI

- Variants of: B1
- recorded-conditions: with pch2_human TRIP13, Q15645
quantity-measured: effect of a mutation on the interaction

I268T with no effect
G33D with no effect
C190W with no effect
